- studyConditions: in methanol, 298.15 K
endpointName: solubility (mole fraction)
Answer using only a numeral; do not append any unit.

State, in one line, measured solubility (mole fraction) of O=C1NC(=O)c2cc([N+](=O)[O-])ccc21
0.00318

* * *

- studyConditions: in chloroform, 283.15 K
endpointName: solubility (mole fraction)

State, in one line, measured solubility (mole fraction) of O=C1NC(=O)c2cc([N+](=O)[O-])ccc21
0.000722

* * *

- studyConditions: in isopropanol, 313.15 K
endpointName: solubility (mole fraction)
Answer using only a numeral; do not append any unit.

State, in one line, measured solubility (mole fraction) of O=C1NC(=O)c2cc([N+](=O)[O-])ccc21
0.00311
